Below, each entry is listed alongside its reported CC50.
System: A498
Assay: panel of 60 human tumor cell lines, growth inhibition (Renal Cancer)
Settings: Homo sapiens, A498, read-out: LC50

Fill blank: measured CC50 of the compound C=C1C(=O)O[C@H]2[C@H]1CC/C(COC(=O)CCC(=O)NCc1ccc(Cl)nc1)=C\CC[C@@]1(C)O[C@@H]21 [JVM 96] is ____.
54.2 µM

Fill blank: measured CC50 of the compound C=C1C(=O)O[C@H]2[C@H]1CC/C(COC(=O)NCCc1ccccn1)=C\CC[C@@]1(C)O[C@@H]21 [JVM 61] is ____.
49.1 µM

Fill blank: measured CC50 of the compound C=C1C(=O)O[C@H]2[C@H]1CC/C(COC(=O)NCCN1CCOCC1)=C\CC[C@@]1(C)O[C@@H]21 [JVM 57] is ____.
> 100 µM

Fill blank: measured CC50 of the compound C=C1C(=O)O[C@H]2[C@H]1CC/C(COC(=O)OC)=C\CC[C@@]1(C)O[C@@H]21 [JVM 2-40] is ____.
49 µM
